target: Estrogen receptor beta (Homo sapiens, UniProt Q92731);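 further: recombinant ER-beta bound to coactivator SRC1 peptide in presence of estradiol agonist; inhibitors block coactivator peptide binding and lower the FRET signal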
Activity calls are given as the source filed them.
Property Label: IC50

// each compound listed below needs its IC50
1. COc1ccc(N2Cc3cccc(C(=O)O)c3C2=O)cc1
2. COc1cccc(-n2nc(-c3ccnn3-c3ccc(F)cc3)c(=O)n(C)c2=O)c1
3. Cc1nc2cc(C(=O)O)ccc2[nH]1

1: 2.15 µM (active); 2: > 50 µM (not active); 3: 24.7 µM (active)

* * *

molecular target: UniProt:P41145; assay type: functional
pIC50: −log10 of the molar value.
Answer each item with its documented pIC50.

Sample records with pIC50:
C=CCNC(=S)N/N=C(\C)c1ccccn1    < 4.49
Cc1cc2nc(N3C(=O)CNC3=S)sc2cc1C    < 4.49

Consider now this further molecule.
For the molecule N#CC(C#N)=C1C=CC=CN1/C(=C\c1ccco1)C(=O)c1ccc(Cl)cc1 , the measured pIC50 on UniProt:P41145 was 4.78

* * *

assay: HepG2 cell cytotoxicity, dose response, cytotoxicity control for non-replicating M. tuberculosis project (AID 489018); assay type: functional; settings: Mycobacterium tuberculosis
Calls of active or inactive are those of the source.
Property Label: CC50

CCCOc1ccc(C(=O)C(CN2CCCC2)c2ccccc2)cc1 (centres undefined)    13.3 µM (active)
CCC(=O)Nc1nc2ccccc2n1Cc1ccc(C)cc1    > 20 µM (active)
Cc1cc(NCc2ccccn2)n2nc(C)c(-c3ccccc3)c2n1    3.11 µM (active)

Documented CC50 of CC1CCN(CCc2nc3cc(NC(=O)COc4ccc(Cl)cc4)ccc3n2C)CC1 : > 20 µM (active)

* * *

Answer each item with its documented IC50.
target: Polyadenylate-binding protein 1 (Homo sapiens, UniProt P11940); test: PABP1 MLLE–PAM2 binding inhibitor potency, dose response, biochemical, fluorescence polarization, FITC-PAM2 peptide (AID 602259); format: functional; settings: read-out: IC50_Mean
Active and inactive are the calls of the source.

Sample records with IC50:
CCn1c(N)c(C(=O)NC2CCCCC2)sc1=S    > 66 µM (inactive)
Cc1ccc(SC(=O)c2c(C)noc2-c2cc(C)on2)cc1    > 66 µM (inactive)
Cc1ccc(C2CC2C(=O)NN=C(S)Nc2ccc(Cl)cc2)cc1 (stereo not given)    > 66 µM (inactive)
Oc1ccc(/C=N/NC(=S)Nc2cccnc2)cc1    > 66 µM (inactive)

Documented IC50 of NC(=S)N/N=C/c1c(O)ccc2ccccc12 : > 66 µM (inactive)

* * *

biological target: Streptokinase A (Streptococcus pyogenes serotype M1, UniProt P10520); experiment: S. pyogenes streptokinase expression inhibitors, potency, dose response, plasminogen activation absorbance, OD405 (AID 1914); assay type: functional, Streptococcus pyogenes M1 GAS;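 further: secreted streptokinase activity via plasminogen activation per viability signal from cell pellet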
Active and inactive are the calls of the source.
Answer each item with its documented EC50.

Sample records with EC50:
N#C/C(=N\Nc1ccc(S(=O)(=O)N2CCOCC2)cc1)C(N)=S    > 150 µM (not active)
CCOC(=O)C1CCN(C2=C(NS(=O)(=O)c3ccc(Cl)cc3)C(=O)c3ccccc3C2=O)CC1    27 µM (active)
c1ccc2c(-c3c[nH]c4ccccc34)c3ccccc3nc2c1    > 150 µM (not active)
CN(/N=C/c1cc(Br)cc(Br)c1O)c1cccc(C(F)(F)F)n1    > 150 µM (not active)
Cc1cc(N/N=C/c2cccc(Br)c2)nc2ccccc12    > 150 µM (not active)

// each molecule listed below needs its EC50
1. Cc1nc(NC(=O)c2ccc(Cl)cc2)sc1-c1csc(Nc2cccc(F)c2)n1
2. CCc1c(O)n(C2CCCCC2)c(SCC(=O)Nc2nc3ccccc3s2)nc1=O

1: > 150 µM (not active); 2: 17.1 µM (active)

// each molecule listed below needs its EC50
1. CSc1ccc(S(=O)(=O)NCC(=O)OCC(=O)N2CCCC2=O)cc1[N+](=O)[O-]
2. O=C(/C=C/c1cn(-c2ccccc2)nc1-c1ccccc1)Nc1ccc(C(=O)O)cc1
3. N[C@@H](C(=O)N[C@@H]1C(=O)N2C(C(=O)O)=C(Cl)CS[C@H]12)c1ccccc1 [CEFACLOR ANHYDROUS]

1. > 150 µM (not active)
2. > 150 µM (not active)
3. > 150 µM (not active)

* * *

Answer each item with its documented EC50.
tested on: Streptococcus; assay: Group A Streptococcus viability loss, dose response, counter-screen for streptokinase expression inhibitor project, luminescence, BacTiterGlo (AID 1915); type: functional, organism-based; conditions: Streptococcus;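 further: potency for reduction of bacterial viability or growth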
Activity calls are given as the source filed them.

Sample records with EC50:
COc1ccc(-n2nc3cc(C)c(NC(=O)C(C)C)cc3n2)cc1    > 150 µM (not active)
Cc1[nH]c2ccccc2c1/C=N/Nc1nc2ccccc2[nH]1    9.86 µM (active)
N#C/C(=N\Nc1ccc(S(=O)(=O)N2CCOCC2)cc1)C(N)=S    > 150 µM (not active)

// each compound listed below needs its EC50
1. Clc1ccccc1Sc1ccc(-c2ccccn2)s1
2. Cc1ccc(C)c(-c2nnc(NC(=O)CCS(=O)(=O)c3ccccc3)o2)c1
3. O=C(N/N=C/c1ccccc1O)NC12CC3CC(CC(C3)C1)C2
4. CCOC(=O)C1CCN(C2=C(NS(=O)(=O)c3ccc(Cl)cc3)C(=O)c3ccccc3C2=O)CC1
5. c1ccc2c(-c3c[nH]c4ccccc34)c3ccccc3nc2c1

1. > 150 µM (not active)
2. 141 µM (active)
3. 15.1 µM (active)
4. > 150 µM (not active)
5. 15.8 µM (active)

// each compound listed below needs its EC50
1. Cc1nc(NC(=O)c2ccc(Cl)cc2)sc1-c1csc(Nc2cccc(F)c2)n1
2. CCCCCCCCCCCCCCCCn1cc[n+](C)c1
3. C=CCNC(=S)N/N=C(\C)c1ccccn1

1: 21.4 µM (active); 2: 8.54 µM (active); 3: > 150 µM (not active)

* * *

Answer each item with its documented EC50.
target: Peroxisome proliferator-activated receptor gamma/Nuclear receptor coactivator 3 (Homo sapiens, UniProt P37231); type: functional;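 further: agonist potency for raising coactivator recruitment to the receptor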

Sample records with EC50:
O=c1[nH]n(-c2ccccc2)c(=O)c2ccccc12    > 79.4 µM (not active)
CSCCNC(C)=O    > 79.4 µM (not active)
Cc1cc(C)nc(/N=c2/ssnc2Cl)c1    > 79.4 µM (not active)

Documented EC50 of CCCCC(CC)Cn1c2nc3ccccc3nc2c2c(=N)oc(C)nc21 (centres undefined) : 84.3 µM (not active)

* * *

target: UniProtKB P63073; assay: eIF4E–eIF4G protein interaction inhibitors, dose response, biochemical, TR-FRET (AID 855); type: functional;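 further: potency for disrupting eIF4E binding to eIF4GI seen as loss of FRET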
Calls of active or inactive are those of the source.
Use one of these outcomes when replying: true (1) for active, false (0) for inactive

The examples below pair each entry with its known result.
COc1ccc(-c2c(C)nn3c(N)c(C#N)cnc23)cc1OC    false (0)
CCCCCCCCCCCCCCCCn1cc[n+](C)c1    true (1)

Hello, I am checking results. What call was entered for COc1ccc(CC2C(=O)NC(=O)N(c3ccccc3)C2=O)c(OC)c1 (stereo not given) ?
false (0)

Hello, I am checking results. What call was entered for CCc1nnc(NC(=O)Cc2ccc(OCc3c(C)noc3C)cc2)s1 ?
false (0)

Hello, I am checking results. What call was entered for CCn1c(SCC(=O)Nc2ccc(C(C)=O)cc2)nc2nc3c(cc2c1=O)CCCC3 ?
false (0)

* * *

experiment: inhibitors of HIV Env-driven cell fusion, dose response, cherry-pick (AID 652057); format: functional, cell-based
Active and inactive are the calls of the source.
Answer each item with its documented AC50.

CC(C)(C)NC(=O)C(c1ccccc1)N(Cc1cccs1)C(=O)c1csnn1 (centres undefined)    6.9 µM (active)
COc1ccc2cc3c(N)nn(C(=O)Cc4c[nH]c5ccccc45)c3nc2c1    0.352 µM (active)
O=C(Nc1cccc(-c2ccc(N3CCCCC3)nn2)c1)C(F)(F)F    3.47 µM (active)

Consider now this further molecule.
Documented AC50 of CCN(CC)S(=O)(=O)c1cccc(S(=O)(=O)c2cccc(S(=O)(=O)N(CC)CC)c2)c1 : 20.8 µM (active)

* * *

Answer each item with its documented EC50.
test: Luminescence Cell-Based Dose Response HTS to Identify Inhibitors of 5'UTR Stem-Loop Driven Prion Protein mRNA Translation in H4 Neuroglioblastoma Cells. [Related pubchem assays: 1827 (Project Summary), 1813 (Primary HTS)]; assay type: functional
Activity calls are given as the source filed them.

// each molecule listed below needs its EC50
1. CCN1CCCC1CNC(=O)c1ccc2c(c1)NC(=O)/C(=C\c1ccc(C)cc1)S2 (stereo not given)
2. CCC(=O)Nc1nc2ccccc2n1Cc1ccc(C)cc1
3. COc1ccc(-c2c(C)nn3c(N)c(C#N)cnc23)cc1OC

["16 µM (active)", "11.8 µM (active)", "> 120 µM (not active)"]

// each molecule listed below needs its EC50
1. C(=N\Nc1nc2ccccc2[nH]1)/c1cccc2nccnc12
2. CCOc1ccc2c(c1)C(C)=CC(C)(C)N2S(=O)(=O)c1ccc(C)cc1

1: 9.69 µM (active); 2: 0.147 µM (active)
